- Test system: optoTopBP1 Flp-In 293 T-REx (HEK293) cells
- TEST_SUMMARY: light-induced TopBP1 condensate (nuclear foci) count, plate-normalised robust z-score vs non-control wells; higher = more TopBP1 condensates (negative = condensation inhibitor), active = hit call of the paper
- EXPERIMENTAL_PARAMETERS: 10 µM; incubation time 2 h
Counter-ions that a name gives are not always drawn. Among all 1,500 compounds or so, about 30 (2%) showed activity. For the sample, actives were picked, then their nearest neighbours and some compounds at random.
Tick Satisfied if light-induced TopBP1 condensate (z-score) is -0.2 or greater. Tick Not satisfied if light-induced TopBP1 condensate (z-score) is less than -0.2.

Task item: Answer whether light-induced TopBP1 condensate (z-score) of O=c1[nH]cnc2c1ncn2[C@@H]1O[C@H](CO)[C@@H](O)[C@H]1O is greater than or equal to -0.2.
Reply: Not satisfied

Task item: Answer whether light-induced TopBP1 condensate (z-score) of N=C(NCCCCCCNC(=N)NC(=N)Nc1ccc(Cl)cc1)NC(=N)Nc1ccc(Cl)cc1 is greater than or equal to -0.2.
Reply: Satisfied

Task item: Answer whether light-induced TopBP1 condensate (z-score) of Cc1c(Cl)cccc1Nc1ccccc1C(=O)O is greater than or equal to -0.2.
Reply: Not satisfied

Task item: Answer whether light-induced TopBP1 condensate (z-score) of CCOCCn1c(N2CCCN(C)CC2)nc2ccccc21 is greater than or equal to -0.2.
Reply: Not satisfied

Task item: Answer whether light-induced TopBP1 condensate (z-score) of CC/C=C(\C(=O)N[C@@H]1C(=O)N2C(C(=O)OCOC(=O)C(C)(C)C)=C(COC(N)=O)CS[C@H]12)c1csc(N)n1 [Cefcapene pivoxil hydrochloride] is greater than or equal to -0.2.
Reply: Not satisfied
